Tested on: rodent lifetime carcinogenesis bioassay, tumor incidence TD50
Test: carcinogenic potency in animals, long-term in vivo studies, CPDB compilation (AID 1745844)
Conditions: rat; strain Fischer 344; females; in feed; site: urinary bladder; lesion: transitional-cell carcinoma + transitional-cell papilloma; dosed 104 weeks; study length 104 weeks
Measured parameter: TD50

Request: TD50, test system rodent lifetime carcinogenesis bioassay, tumor incidence TD50, entry `Cc1ccccc1N`
175 mg/kg/day

###

Tested on: rodent lifetime carcinogenesis bioassay, tumor incidence TD50
Assay: carcinogenic potency in animals, long-term in vivo studies, CPDB compilation (AID 1745844)
Conditions: rat; strain Sprague-Dawley; females; in feed; site: kidney; lesion: adenoma; dosed 130 weeks; study length 130 weeks
Activity calls are given as the source filed them. The rule behind the calls is not given here.
Measured parameter: TD50

I'd like to know its TD50. The compound in question is `[CH3][Hg][Cl]`
15.7 mg/kg/day (inactive)
